test target: HIV-1 RT (Human immunodeficiency virus type 1 group M subtype B, UniProt P03366)
Construct: made in house
test summary: HIV-1 RT inhibition with recombinant DNA-derived enzyme, poly(rA)·oligo(dT)10 template/primer, 3H-TTP incorporation
Assay type: biochemical

- chem smiles: "Clc1ccc2c(c1)C(c1ccc[nH]1)=NCC(NC1CC1)=N2"
  IC50: "5.4 µM"
- chem smiles: "Clc1ccc2c(c1)C(c1ccc[nH]1)=NCC(Nc1ccccc1)=N2"
  IC50: "15.8 µM"
- chem smiles: "OCCNC1=Nc2ccc(Cl)cc2C(c2ccc[nH]2)=NC1"
  IC50: "8.9 µM"
- chem smiles: "C#CCNC1=Nc2ccc(Cl)cc2C(c2ccc[nH]2)=NC1"
  IC50: "2 µM"
- chem smiles: "Clc1ccc2c(c1)C(c1ccc[nH]1)=NCC(NCc1ccccc1)=N2"
  IC50: "2.6 µM"
- chem smiles: "C=CCNC1=Nc2ccc(Cl)cc2C(c2ccc[nH]2)=NC1"
  IC50: "4.2 µM"
- chem smiles: "CN(C)C1=Nc2ccc(Cl)cc2C(c2ccc[nH]2)=NC1"
  IC50: "7.3 µM"
- chem smiles: "CSC1=Nc2ccc(Cl)cc2C(c2ccc[nH]2)=NC1"
  IC50: "1.6 µM"
- chem smiles: "COC1=Nc2ccc(Cl)cc2C(c2ccc[nH]2)=NC1"
  IC50: "1.5 µM"

---

Tested on: HIV-TAT
test summary: anti-HIV-TAT assay: SeAP reporter under HIV-LTR versus RSV-LTR in transfected COS cells
Format: cell-based
conditions: 1-50 µM, specific inhibition of SeAP under HIV-LTR minus RSV-LTR, 48 hours after addition, average of at least three tests, grades not defined

- compound: "CSC1=Nc2ccc(Cl)cc2C(c2ccc[nH]2)=NC1 [SCH₃]"
  Anti-HIV-TAT activity: "Low/Medium"
- compound: "Clc1ccc2c(c1)C(c1ccc[nH]1)=NCC(NCc1ccccc1)=N2 [NHCH₂Ph]"
  Anti-HIV-TAT activity: "Low/Medium"
- compound: "C=CCNC1=Nc2ccc(Cl)cc2C(c2ccc[nH]2)=NC1 [NHCH₂CH=CH₂]"
  Anti-HIV-TAT activity: "Low"
- compound: "CCN(CC)C1=Nc2ccc(Cl)cc2C(c2ccc[nH]2)=NC1 [N(CH₂CH₃)₂]"
  Anti-HIV-TAT activity: "Low/Medium"

---

test target: HIV-1 RT (Human immunodeficiency virus type 1 group M subtype B)
Construct: made in house
test summary: HIV-1 RT inhibition with recombinant DNA-derived enzyme, poly(rA)·oligo(dT)10 template/primer, 3H-TTP incorporation
Type: biochemical
conditions: recombinant HIV-1 RT, 37°C, 10 minutes; read-out: IC₅₀
Experimental: Compounds of the present invention were also examined for their ability to inhibit HIV-1 RT using recombinant DNA-derived enzyme (S.F.J. Le Grice and F. Gruninger-Leitch, European Journal of Biochemistry 187:307-314 (1990)) in 100ml volume assay mixtures. […] TCA-precipitated material was collected by filtration and the bound radioactivity determined by counting using a liquid scintillation counter. […]
pIC50: −log10 of the molar value.
Reported pIC50 values follow for various compounds
measurement label: pIC50

- compound: "Clc1ccc2c(c1)C(c1ccc[nH]1)=NCC(N1CCCCC1)=N2"
  observed measurement: 4.98
- compound: "Clc1ccc2c(c1)C(c1ccc[nH]1)=NCC(N1CCCC1)=N2"
  observed measurement: 4.99
- compound: "OC1CCN(C2=Nc3ccc(Cl)cc3C(c3ccc[nH]3)=NC2)C1 (racemic)"
  observed measurement: 5.19
- compound: "Clc1ccc2c(c1)C(c1ccc[nH]1)=NCC(N1CCNCC1)=N2"
  observed measurement: 4.74

---

System: HIV-TAT
test summary: anti-HIV-TAT assay: SeAP reporter under HIV-LTR versus RSV-LTR in transfected COS cells
Assay type: cell-based
conditions: 1-50 µM, specific inhibition of SeAP under HIV-LTR minus RSV-LTR, 48 hours after addition, average of at least three tests, grades not defined
measurement label: Anti-HIV-TAT activity

- compound: "COC1=Nc2ccc(Cl)cc2C(c2ccc[nH]2)=NC1 [OCH₃]"
  measurement label: "Anti-HIV-TAT activity"
  observed measurement: "Medium"
- compound: "Clc1ccc2c(c1)C(c1ccc[nH]1)=NCC(NC1CC1)=N2 [NH(cyclopropyl)]"
  measurement label: "Anti-HIV-TAT activity"
  observed measurement: "Medium"
- compound: "Clc1ccc2c(c1)C(c1ccc[nH]1)=NCC(N1CCCC1)=N2 [1-pyrrolidinyl]"
  measurement label: "Anti-HIV-TAT activity"
  observed measurement: "Medium/High"
- compound: "Clc1ccc2c(c1)C(c1ccc[nH]1)=NCC(N1CCNCC1)=N2 [1-piperazinyl]"
  measurement label: "Anti-HIV-TAT activity"
  observed measurement: "Low"
- compound: "OCCNC1=Nc2ccc(Cl)cc2C(c2ccc[nH]2)=NC1 [NHCH₂CH₂OH]"
  measurement label: "Anti-HIV-TAT activity"
  observed measurement: "Medium"
- compound: "CN(C)C1=Nc2ccc(Cl)cc2C(c2ccc[nH]2)=NC1 [N(CH₃)₂]"
  measurement label: "Anti-HIV-TAT activity"
  observed measurement: "Medium/High"
- compound: "Clc1ccc2c(c1)C(c1ccc[nH]1)=NCC(N1CCCCC1)=N2 [1-piperidinyl]"
  measurement label: "Anti-HIV-TAT activity"
  observed measurement: "Medium/High"
- compound: "NNC1=Nc2ccc(Cl)cc2C(c2ccc[nH]2)=NC1 [NHNH₂]"
  measurement label: "Anti-HIV-TAT activity"
  observed measurement: "High"
- compound: "OC1CCN(C2=Nc3ccc(Cl)cc3C(c3ccc[nH]3)=NC2)C1 (racemic) [3-OH-1-pyrrolidinyl]"
  measurement label: "Anti-HIV-TAT activity"
  observed measurement: "High"
